# Test system: HCC1428
# Assay overview: -log10 GI50 (growth inhibition 50%) (-log10(M)); higher = more potent growth inhibition
Quantity: -log10 GI50

Example results:
CCCC(CCC)C(=O)O	3.13
CCC1=C[C@@H]2CN(C1)Cc1c([nH]c3ccccc13)[C@@](C(=O)OC)(c1cc3c(cc1OC)N(C)[C@H]1[C@@](O)(C(=O)OC)[C@H](OC(C)=O)[C@]4(CC)C=CCN5CC[C@]31[C@@H]54)C2	5.66
Oc1cc(-c2nc(-c3ccccc3)[nH]c2-c2ccncc2)ccc1Cl	4.97
Cn1c(=O)n(-c2ccc(C(C)(C)C#N)cc2)c2c3cc(-c4cnc5ccccc5c4)ccc3ncc21	5.51

I = O=C1NC(=O)/C(=C/c2ccc3nccc(-c4ccncc4)c3c2)S1
II = CC(C)[C@H](CO)Nc1nc(Nc2cccc(Cl)c2)c2ncn(C(C)C)c2n1
Incoming: Decide: I or II , by lowest recorded -log10 GI50. Bench note: the answer is the label of the chosen record.
Outgoing: II

P = C#Cc1cccc(Nc2ncnc3cc(OCCOC)c(OCCOC)cc23)c1
Q = CC(C)C[C@H](NC(=O)[C@H](Cc1ccccc1)NC(=O)c1cnccn1)B(O)O
Incoming: Decide: P or Q , by lowest recorded -log10 GI50. Bench note: the answer is the label of the chosen record.
Outgoing: P

1 = C/C(=C\c1csc(C)n1)[C@@H]1C[C@@H]2O[C@]2(C)CCC[C@H](C)[C@H](O)[C@@H](C)C(=O)C(C)(C)[C@@H](O)CC(=O)N1 [Ixabepilone]
2 = COc1cc2c(Nc3ccc(NC(=O)c4ccccc4)cc3)ncnc2cc1OCCCN1CCOCC1
Incoming: 1 or 2 : whose -log10 GI50 is greater? Bench note: the answer is the label of the chosen record.
Outgoing: 1
(1: 7.23, 2: 4.56)
